The reported numbers originate from ChEMBL document CHEMBL4334523.

We begin with a simple list: items and their reported log10 EC50.
# Target Or System: Stimulator of interferon genes protein (Homo sapiens, UniProt Q86WV6)
# Sequence (Q86WV6 whole entry): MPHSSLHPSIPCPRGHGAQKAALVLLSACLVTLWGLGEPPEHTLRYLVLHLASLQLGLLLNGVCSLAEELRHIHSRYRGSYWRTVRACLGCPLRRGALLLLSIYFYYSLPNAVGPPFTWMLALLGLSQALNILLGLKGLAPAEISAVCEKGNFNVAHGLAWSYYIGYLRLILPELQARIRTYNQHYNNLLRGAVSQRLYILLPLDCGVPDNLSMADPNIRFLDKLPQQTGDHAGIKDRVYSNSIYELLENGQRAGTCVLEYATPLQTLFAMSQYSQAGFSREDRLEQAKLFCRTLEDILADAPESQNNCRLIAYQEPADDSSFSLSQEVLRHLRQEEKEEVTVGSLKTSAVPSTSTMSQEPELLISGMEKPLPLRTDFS
# Protocol: Activation of recombinant human wild-type STING expressed in 293T cells incubated for 7 hrs in absence of digitonin A by bright Glo-luciferase reporter gene assay
# Format: cell-based
Friendly reminder: values = log10 of EC50, unit µM.

Known log10 EC50 results, listed for orientation:
Cn1c(N)nc2c(ncn2[C@@H]2O[C@@H]3COP(=O)(O)O[C@H]4[C@@H](O)[C@H](n5cnc6c(N)ncnc65)O[C@@H]4COP(=O)(O)O[C@@H]2[C@@H]3O)c1=O	1.60
CSc1ncnc2c1ncn2[C@@H]1O[C@@H]2COP(=O)(O)O[C@@H]3[C@H](O)[C@@H](COP(=O)(O)O[C@H]2[C@H]1O)O[C@H]3n1cnc2c(=O)[nH]c(N)nc21	1.12
Nc1nc2c(ncn2[C@@H]2O[C@@H]3COP(=O)(O)O[C@H]4C[C@H](n5cnc6c(N)nc(Cl)nc65)O[C@@H]4COP(=O)(O)O[C@@H]2[C@@H]3O)c(=O)[nH]1	1.76
Nc1nc2c(ncn2[C@@H]2O[C@@H]3COP(=O)(O)O[C@@H]4[C@H](O)[C@@H](COP(=O)(O)O[C@@H]2[C@@H]3O)O[C@H]4n2cnc3c(N)ncnc32)c(=O)[nH]1	1.59

Shift focus to the following entry.
Given item Nc1nc2c(ncn2[C@@H]2O[C@@H]3COP(=O)(O)O[C@H]4[C@@H](O)[C@H](n5cnc6c(=O)[nH]cnc65)O[C@@H]4COP(=O)(O)O[C@@H]2[C@@H]3O)c(=O)[nH]1 , the value recorded as its log10 EC50 is 2.17
